Target: plasma purified human antithrombin III (AT-III) in complex with full-length unfractionated heparin (UFH)
metric: K0.5-mut/K0.5-wt (fold)
Number in fold, nothing else.

[ask] What does the record list as K0.5-mut/K0.5-wt for FIXa A103N/N105S/K247N/N249S/R318Y/R338E/R403E/E410N (protein) chain 1: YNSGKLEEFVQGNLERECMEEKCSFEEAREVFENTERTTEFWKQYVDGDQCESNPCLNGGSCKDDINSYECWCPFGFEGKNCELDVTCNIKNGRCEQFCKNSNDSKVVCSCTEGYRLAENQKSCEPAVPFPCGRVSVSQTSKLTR chain 2: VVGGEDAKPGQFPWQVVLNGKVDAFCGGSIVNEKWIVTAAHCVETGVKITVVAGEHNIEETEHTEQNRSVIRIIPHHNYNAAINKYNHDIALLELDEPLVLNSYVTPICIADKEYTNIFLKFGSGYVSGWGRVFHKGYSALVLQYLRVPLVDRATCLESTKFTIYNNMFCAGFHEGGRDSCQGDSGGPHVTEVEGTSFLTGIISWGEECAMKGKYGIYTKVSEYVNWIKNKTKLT ?
[reply] 129

Entry source: patent US20210230570
